Target: T1, CB1 surface expression (CB1 TRex-CHO / TRex-293 cells) (Homo sapiens, UniProt P21554)
T1 construct: pcDNA4/TO native full length human CB1 receptor construct was transfected into tetracycline inducible system Trex-CHO and Trex-293 cells; expressed in transfected cells; tetracycline induced
T1 sequence (P21554 whole entry): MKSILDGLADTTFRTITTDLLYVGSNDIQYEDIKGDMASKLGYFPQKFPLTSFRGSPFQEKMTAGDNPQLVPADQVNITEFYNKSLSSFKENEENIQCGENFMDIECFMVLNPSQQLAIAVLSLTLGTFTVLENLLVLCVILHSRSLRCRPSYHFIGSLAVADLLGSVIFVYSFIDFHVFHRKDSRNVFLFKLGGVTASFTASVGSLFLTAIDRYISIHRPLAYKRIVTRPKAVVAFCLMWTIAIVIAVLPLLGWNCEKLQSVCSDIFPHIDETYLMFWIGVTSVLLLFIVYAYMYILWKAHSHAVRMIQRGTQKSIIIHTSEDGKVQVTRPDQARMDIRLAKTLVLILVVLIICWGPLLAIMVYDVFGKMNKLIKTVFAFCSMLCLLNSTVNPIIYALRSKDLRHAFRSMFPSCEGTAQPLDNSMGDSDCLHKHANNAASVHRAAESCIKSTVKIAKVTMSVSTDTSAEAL
Type: cell-based
Conditions: antibody 300 nM pre-treatment, 1 μM WIN55,212 1 hour
Procedure: 5×10^5 cells/well stably expressing CB1 TRex-CHO cells were seeded in a 6-well plate. Tetracycline (1 μg/ml) was added to culture medium for 24 hours to induce CB1 expression. On the day of the experiment, cells were serum starved for 2 hours. […] Surface expression of CB1 was stained with anti-CB1 N-terminus mouse monoclonal antibody from R&D and the mean fluorescence intensity (MFI) was determined using flow cytometry. […]
Measured Property: effect on WIN55,212 induced CB1 receptor internalization

Exam item: Find the recorded effect on WIN55,212 induced CB1 receptor internalization belonging to PA2LR3-P3F8: phage-derived CB1 antibody clone (antibody, V domains shown, PA2LR3-P3F8 Heavy Chain Variable Region; PA2LR3-P3F8 Light Chain Variable Region, phage-derived CB1 antibody clone) VH: EVQLQQSGAELVRPGSSVKISCKASGYAFSNYWMNWVKQRPGQGLEWIGQIYPGDGDTNYNGNFKGKATLTADKSSSTAYMQLSSLTSEDSAVYFCARSHGNYFPYWGQGTLVTVSA VL: DIVLTQSPAIMSASLGERVTMTCTASSSVSSSYLHWYQQKPGSSPKLWIYSTSNLASGVPARFSGSGSGTSYSLTISSMEAEDAATYYCQQWSSYPLTFGAGTKLELK and report it.
Marked response: do not block

Exam item: Find the recorded effect on WIN55,212 induced CB1 receptor internalization belonging to PA2LR3-P4G10: phage-derived CB1 binding IgG clone (antibody, V domains shown, PA2LR3-P4G10 Heavy Chain Variable region; PA2LR3-P4G10 Light Chain Variable region) VH: EVQLQQFGAELVRPGSSVKISCKASGYAFSYYWMNWVKQRPGQGLEWIGQIYPGDGDTNYNGKFKGKATLTADKSSSTAYMQLSSLTSEDSAVYFCARSHGNYFAYWGQGTLVTVSA VL: DIVLTQSPAIMSASLGERVTMTCTASSSVSSSYLHWYQQKPGSSPKLWIYSTSNLASGVPARFSGSGSGTSYSLTISSMEAEDAATYYCQQWSSNPLTFGAGTKLELK and report it.
Marked response: do not block
